B1: HHH_rd1_0493 (parent)
chain: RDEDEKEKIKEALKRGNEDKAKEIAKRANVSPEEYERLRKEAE

Variants of: B1
Assay name: folding stability dG (cDNA display proteolysis); higher = more stable
Condition summary: PBS, room temperature
folding stability dG below 2 kcal/mol gives 0; folding stability dG at or above it gives 1.

Residues | Label value
RDEPEKEKIKEALKRGNEDKAKEIAKRANVSPEEYERLRKEAE [D4P] | 1

For this variant, is measured folding stability dG 2 kcal/mol or higher? RDEDEKEKIKEALCRGNEDKAKEIAKRANVSPEEYERLRKEAE [K14C] 1

FYI, the data here is from the MegaScale stability set (Tsuboyama et al. 2023).
